Where do these numbers come from? They come from PubChem BioAssay (NCI).

# Test system: OVCAR-4 ovarian
# test summary: NCI tumour cell line growth inhibition, 48 h
readout: TGI

Would you please look over these solved cases?
>  <compound>
OC(CC1SCCCS1)c1ccccc1 (stereo unspecified)

>  <observed measurement>
> 100 µM

$$$$
>  <compound>
O=C(O)C(O)C(O)C(O)C(O)c1nc2ccccc2s1 (stereo unspecified)

>  <observed measurement>
50.2 µM

$$$$
>  <compound>
C=CCn1c(N)c(C#N)c(C#N)c1-c1ccccc1

>  <observed measurement>
> 100 µM

$$$$
>  <compound>
O=S(=O)(O)CCCc1cccc2ccccc12

>  <observed measurement>
> 100 µM

$$$$
>  <compound>
CCN(CC)CCNc1ccc2nnn3c4ccc(OCCN(CC)CC)cc4c(=O)c1c23

>  <observed measurement>
41.3 µM

$$$$
>  <compound>
COc1cc(OC)cc(Oc2nc3ccccc3nc2C(F)(F)F)c1

>  <observed measurement>
> 100 µM

$$$$
>  <compound>
COC(=O)C1=C(OC(=O)/C(=C/c2ccc(Cl)cc2)c2ccc(Cl)cc2)C(C(=O)OC)[C@@]2(O)[C@@H](C(=O)OC)[C@H](C)C[C@@H]1[C@@H]2C(=O)OC (stereo partly specified)

>  <observed measurement>
> 100 µM

$$$$
>  <compound>
CN1CCN(C2CCN(C(=O)Nc3cc(Oc4ccc(NC(=O)C5(C(=O)Nc6ccc(F)cc6)CC5)c(F)c4)ccn3)CC2)CC1

>  <observed measurement>
9.84 µM

$$$$

Test item Nc1nn2cc(F)cnc2c1C(=O)Nc1cncc(F)c1N1CCC(C(=O)N2CCN(C3COC3)CC2)CC1 ; OVCAR-4 ovarian; reported TGI was 7.86 µM

Test item Cc1ccc(S(=O)(=O)N(C=O)N=C2CCN(Cc3ccccc3)CC2)cc1 ; OVCAR-4 ovarian; reported TGI was > 100 µM

Test item COC(=O)COc1ccccc1/C=C1\N=C(c2ccccc2)N(c2cc(C(F)(F)F)ccc2Cl)C1=O ; OVCAR-4 ovarian; reported TGI was > 100 µM

Test item Cc1ccc(S(=O)(=O)c2[nH]cc(/C(=C\C3CCCCC3)[N+](=O)[O-])c2C2CCCCC2)cc1 ; OVCAR-4 ovarian; reported TGI was 1.28 µM

Test item Cc1cn2c(=O)c3ncn(C4OC(CO)C(O)C4O)c3n(C)c2n1 (stereo unspecified) ; OVCAR-4 ovarian; reported TGI was > 100 µM

Test item Cc1ccc(-c2c(C#N)c(-c3ccc(C)cc3)n(NS(=O)(=O)c3ccccc3)c(=O)c2C#N)cc1 ; OVCAR-4 ovarian; reported TGI was > 100 µM

Test item O=C(O)c1nnsc1-c1ccc(-c2snnc2C(=O)O)cc1 ; OVCAR-4 ovarian; reported TGI was > 100 µM

Test item [N-]=[N+]=NC1(Cc2ccccc2)C(=O)c2cccc3c2N(CCC3)C1=O (stereo unspecified) ; OVCAR-4 ovarian; reported TGI was > 100 µM

====

Form field: TGI (one value per entry).
# Test system: SK-MEL-2 melanoma
# test summary: NCI tumour cell line growth inhibition, 48 h

>  <molecule>
C/C=C/C(CC(O)(C(F)(F)F)C(F)(F)F)=N/NC(N)=S

>  <observed measurement>
> 10 µM

$$$$

# next molecule below
Test item NS(=O)(=O)c1ccc(/C=C/c2ccc(O)c(O)c2)cc1 ; SK-MEL-2 melanoma; reported TGI was 62.8 µM
